- System: Escherichia coli TOP10
- measurementNotes: shrunken log2 fold change of peptide-encoding DNA abundance (4.5 h post-induction vs induction); higher = less antimicrobial activity (less host growth inhibition)
- conditionDetails: time post-induction: 4.5 h; library: site-saturation at positions 5, 18, 19, 20
measureName: shrunken log2 fold change
Please give only the number in your answer, with no unit.

Field: example entries. Status: answers known.
Consider RRIRIRPPRLPRPRPRPLVTPRP . Its measured shrunken log2 fold change is -0.105

For record RRIRIRPPRLPRPRPRPAYWPRP the listed shrunken log2 fold change is -0.0439

get_value(item= RRIRHRPPRLPRPRPRPGKNPRP , readout=shrunken log2 fold change) returns -0.0444

shrunken log2 fold change reported for this sequence RRIRSRPPRLPRPRPRPIWPPRP : 0.0426

Documented shrunken log2 fold change of RRIRTRPPRLPRPRPRPFFCPRP : -0.0401

For record RRIRKRPPRLPRPRPRPTYTPRP the listed shrunken log2 fold change is 0.475

Continuing:
Sure, the documented shrunken log2 fold change for RRIRIRPPRLPRPRPRPMKDPRP is -0.135

The sequence identified as RRIRGRPPRLPRPRPRPDALPRP registered its shrunken log2 fold change at 0.889

----------
- Test system: Escherichia coli TOP10
- measurementNotes: shrunken log2 fold change of peptide-encoding DNA abundance (4.5 h post-induction vs induction); higher = less antimicrobial activity (less host growth inhibition)
- conditionDetails: time post-induction: 4.5 h; library: site-saturation at positions 5, 18, 19, 20
measureName: shrunken log2 fold change
Please reply with the number alone, leaving off any unit.

Observe how each entry below is paired with its result.
Lookup result for RRIRYRPPRLPRPRPRPWDGPRP ; measured shrunken log2 fold change: -0.196

The sequence identified as RRIRCRPPRLPRPRPRPGVEPRP registered its shrunken log2 fold change at 0.0401

So for RRIRFRPPRLPRPRPRPHIQPRP , the logged shrunken log2 fold change turned out to be -0.594

More entries:
The sequence listed as RRIRCRPPRLPRPRPRPQDNPRP has a reported shrunken log2 fold change of -0.285

Short answer for RRIRIRPPRLPRPRPRPNCAPRP : shrunken log2 fold change was -0.187

Record summary for RRIRIRPPRLPRPRPRPIHHPRP : reported shrunken log2 fold change = -0.65

Query RRIRVRPPRLPRPRPRPHLHPRP yields shrunken log2 fold change of -0.279

shrunken log2 fold change recorded for this sequence, RRIRFRPPRLPRPRPRPSMSPRP , is -0.394

----------
Each entry below carries its recorded shrunken log2 fold change.
- Tested on: Escherichia coli TOP10;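 also: peptides expressed intracellularly from a pBAD plasmid library in pooled LB shake-flask culture, induced with 0.3% L-arabinose, DNA abundance read by NGS, three biological replicates, DESeq2 with apeglm shrinkage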
- measurementNotes: shrunken log2 fold change of peptide-encoding DNA abundance (4.5 h post-induction vs induction); higher = less antimicrobial activity (less host growth inhibition)
- conditionDetails: time post-induction: 4.5 h; library: site-saturation at positions 5, 18, 19, 20
The reply should be a number, written without any unit.

Form: item RRIRRRPPRLPRPRPRPRMEPRP ; test system Escherichia coli TOP10; shrunken log2 fold change: 0.0167

# value of shrunken log2 fold change, Escherichia coli TOP10, item RRIRKRPPRLPRPRPRPRAQPRP = 0.7

Per the reported Escherichia coli TOP10 data, RRIRVRPPRLPRPRPRPCPTPRP has shrunken log2 fold change of -0.17

Known value: Escherichia coli TOP10 shrunken log2 fold change of the sequence RRIRIRPPRLPRPRPRPNPNPRP equals -0.556

The reported shrunken log2 fold change value, Escherichia coli TOP10, for RRIRLRPPRLPRPRPRPCLPPRP reads -0.0626

Others:
Noted shrunken log2 fold change for RRIRMRPPRLPRPRPRPGHQPRP , tested on Escherichia coli TOP10: 0.568

Escherichia coli TOP10 data for RRIRERPPRLPRPRPRPVCHPRP ; its shrunken log2 fold change: -0.309

Entry RRIRVRPPRLPRPRPRPRYWPRP under Escherichia coli TOP10 had shrunken log2 fold change of 0.338

Bench note, Escherichia coli TOP10: RRIRCRPPRLPRPRPRPSYQPRP , shrunken log2 fold change reads -0.923

Bench note, Escherichia coli TOP10: entry RRIRMRPPRLPRPRPRPHVDPRP , its shrunken log2 fold change = 0.51

The reported Escherichia coli TOP10 shrunken log2 fold change of RRIRSRPPRLPRPRPRPFMCPRP is -0.255

For RRIRTRPPRLPRPRPRPHQGPRP on Escherichia coli TOP10, measured shrunken log2 fold change was -0.0325

For RRIRDRPPRLPRPRPRPIVTPRP on Escherichia coli TOP10, measured shrunken log2 fold change was 0.171
